This collection of values is drawn from PubChem BioAssay (Tox21).

experiment: qHTS assay to identify small molecule antagonists of the thyroid receptor (TR) signaling pathway - cell viability counter screen (AID 743064); details: GH3.TRE-Luc viability, CellTiter-Fluor, 24 h; series mostly up to 70.3 µM; note: nearly all actives have a fitted effect of over 50% in size
Inconclusive results are not listed. Calls of active or inactive are those of the source. Calls come from the whole dose curve; as a rule, active = well fitted cell-killing curve with a large enough effect in the repeat runs; inconclusive = weak or mixed curves, or effect the other way; inactive = no such curve, though single readings can be large or run the other way.
Respond with a class label; see Y (active), N (inactive)

(Q) Please let me know the test result on file for `O=C(NO)C1(NS(=O)(=O)c2ccc(Oc3ccc(F)cc3)cc2)CCOCC1` .
(A) N

(Q) Please let me know the test result on file for `CCc1cc(Cc2cc(CC)cc(C(C)(C)C)c2O)c(O)c(C(C)(C)C)c1` .
(A) Y

(Q) Please let me know the test result on file for `OC1(c2ccc(Cl)c(C(F)(F)F)c2)CCN(CCCC(c2ccc(F)cc2)c2ccc(F)cc2)CC1` .
(A) Y

(Q) Please let me know the test result on file for `O=C(c1ccc(F)cc1)C1CCN(CCn2c(=O)[nH]c3ccccc3c2=O)CC1` .
(A) N

(Q) Please let me know the test result on file for `O=C1CCCc2c1cc1ccc3cccc4ccc2c1c34` .
(A) N

(Q) Please let me know the test result on file for `Nc1ccccc1O` .
(A) Y

(Q) Please let me know the test result on file for `CCC(N)(CO)CO` .
(A) N

(Q) Please let me know the test result on file for `CC(=O)SC[C@@H](Cc1ccccc1)C(=O)NCC(=O)OCc1ccccc1` .
(A) N

(Q) Please let me know the test result on file for `Cc1onc(-c2c(Cl)cccc2Cl)c1C(=O)N[C@@H]1C(=O)N2[C@@H]1SC(C)(C)[C@@H]2C(=O)O` .
(A) N

(Q) Please let me know the test result on file for `N=C1C=CC(=C(c2ccc(N)cc2)c2ccc(N)cc2)C=C1` .
(A) Y

(Q) Please let me know the test result on file for `O=C1c2c(O)ccc(Nc3ccc(CCO)cc3)c2C(=O)c2c([N+](=O)[O-])ccc(O)c21` .
(A) Y
